Target: Phosphodiesterase 4 (Homo sapiens, UniProt P27815+Q08499+Q07343+Q08493)
Assay: Inhibition of phosphodiesterase 4 (PDE4) from U937 cells
Assay type: cell-based
Conditions: u-937
Experimental Readout: IC50 (nM)

Cc1nn(C)c2ncc(C(N)=O)c(Nc3cccc(O[C@H]4CCN(S(C)(=O)=O)C4)c3)c12	250

P. Cc1nn(C)c2ncc(C(N)=O)c(Nc3ccccc3)c12
Q. COC(=O)N1CC[C@H](Oc2cccc(Nc3c(C(N)=O)cnc4c3c(C)nn4C)c2)C1
Asked: Which value of IC50 is numerically greater: that of P or that of Q ? Please respond with the label that marks your chosen entry.
Given back: P

P. COc1ccccc1Nc1c(C(N)=O)cnc2c1c(C)nn2C
Q. COc1cccc(Nc2c(C(N)=O)cnc3c2c(C)nn3C)c1
Asked: // compare measured IC50 between P and Q ; output the lower one Please reply using the label of the selected record.
Given back: Q
(Q: 5 nM, P: 76 nM)

----------
System: Rattus norvegicus
Assay: Inhibition of lipopolysaccharide-induced tumor necrosis factor alpha production in rats at 10 mg/kg peroral dose (n=7)
Format: functional
Details: route oral
Experimental Readout: inhibition in vivo at 10 mg/kg (%)
The reply should be a number in %, with the unit left off.

Before answering, review these 3 worked examples.
Cc1nn(C)c2ncc(C(N)=O)c(Nc3ccccc3)c12	48
Cc1nn(C)c2ncc(C(N)=O)c(Nc3cccc(O)c3)c12	40
COc1ccccc1Nc1c(C(N)=O)cnc2c1c(C)nn2C	68

Continue with the compound presented below.
Asked: I'd like to know its inhibition in vivo at 10 mg/kg. The compound in question is Cc1nn(C)c2ncc(C(N)=O)c(Nc3cccc(OC4CCCC4)c3)c12
Given back: 39

----------
Item-by-item account of IC50
Biological target: Phosphodiesterase 4 (Homo sapiens, UniProt P27815+Q08499+Q07343+Q08493)
Experiment: Inhibition of phosphodiesterase 4 (PDE4) from U937 cells
Assay type: cell-based
Conditions: u-937

Cc1nn(C)c2ncc(C(N)=O)c(Nc3cccc(O)c3)c12	97 nM

Asked: Consider the compound Cc1nn(C)c2ncc(C(N)=O)c(Nc3cccc(OC4CCCCC4)c3)c12 and give its measured IC50.
Given back: > 100 nM

Asked: // query: CC(=O)N1CC[C@H](Oc2cccc(Nc3c(C(N)=O)cnc4c3c(C)nn4C)c2)C1
Given back: > 300 nM

Asked: What do you have for Cc1nn(C)c2ncc(C(N)=O)c(Nc3cccc(C#N)c3)c12 ?
Given back: 85 nM

Asked: Likewise for Cc1nn(C)c2ncc(C(N)=O)c(Nc3cccc(O[C@H]4CCNC4)c3)c12 ?
Given back: > 300 nM

Asked: Also need Cc1nn(C)c2ncc(C(N)=O)c(Nc3cccc(O[C@H]4CCN(C(=O)OC(C)(C)C)C4)c3)c12 , thanks.
Given back: > 300 nM

Asked: Now give it for Cc1nn(C)c2ncc(C(N)=O)c(Nc3cccc(OC4CCC4)c3)c12 too.
Given back: > 100 nM

Asked: What do you have for Cc1nn(C)c2ncc(C(N)=O)c(Nc3cccc(OC4CCCC4)c3)c12 ?
Given back: > 100 nM

Asked: Now this one: COc1ccc(Nc2c(C(N)=O)cnc3c2c(C)nn3C)cc1
Given back: > 100 nM
